biological target: BRAF G466V (Homo sapiens, UniProt P15056, G466V); construct: Horizon Discovery (HCT-116 BRAF−/− cells); host or cells: HCT-116 BRAF−/− cells, clone 8, lentiviral transduction; experiment: BRAF HiBiT degradation assay, C-terminal HiBiT-tagged BRAF G466V overexpressed in HCT-116 BRAF−/− cells (clone 8), Nano-Glo HiBiT Lytic assay; format: cell-based; settings: BRAF G466V (Class 3), HCT-116 BRAF−/− cells; observed Dmax relative to DMSO control
Sequence (P15056 whole entry G466V): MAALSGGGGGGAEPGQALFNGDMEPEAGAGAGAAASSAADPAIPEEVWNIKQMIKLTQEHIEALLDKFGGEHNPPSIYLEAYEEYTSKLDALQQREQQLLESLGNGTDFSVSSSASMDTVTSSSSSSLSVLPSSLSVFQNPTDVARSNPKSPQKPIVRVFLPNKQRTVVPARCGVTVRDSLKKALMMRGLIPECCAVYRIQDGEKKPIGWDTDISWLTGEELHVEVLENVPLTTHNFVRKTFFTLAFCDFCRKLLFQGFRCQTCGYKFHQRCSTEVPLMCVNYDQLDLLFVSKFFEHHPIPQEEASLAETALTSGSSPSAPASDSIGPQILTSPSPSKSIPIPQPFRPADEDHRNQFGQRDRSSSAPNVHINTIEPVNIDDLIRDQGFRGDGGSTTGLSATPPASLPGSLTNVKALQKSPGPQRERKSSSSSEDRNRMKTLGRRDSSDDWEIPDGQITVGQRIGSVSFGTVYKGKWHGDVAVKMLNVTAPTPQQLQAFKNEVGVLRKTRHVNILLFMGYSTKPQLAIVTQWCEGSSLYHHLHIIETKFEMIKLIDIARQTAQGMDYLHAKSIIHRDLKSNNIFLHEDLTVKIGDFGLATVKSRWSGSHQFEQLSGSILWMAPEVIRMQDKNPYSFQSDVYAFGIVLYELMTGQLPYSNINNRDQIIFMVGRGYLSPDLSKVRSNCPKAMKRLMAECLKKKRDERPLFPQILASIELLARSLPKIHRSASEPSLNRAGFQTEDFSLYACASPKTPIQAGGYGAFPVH

{"compound": "O=C1CCC(c2ccc(N3CCC(CN4CCN(c5ccc(-n6cc(-c7cc(Cl)cc(NS(=O)(=O)N8CC[C@@H](F)C8)c7F)c(-c7ccncc7)n6)cc5F)CC4)CC3)nc2)C(=O)N1 (mixture of isomers)", "Dmax": "> 70%"}
{"compound": "O=C1CC[C@H](c2ccc(N3CCC(CN4CCN(c5ccc(-n6cc(-c7cc(Cl)cc(NS(=O)(=O)N8CC[C@@H](F)C8)c7F)c(-c7ccncc7)n6)nc5)CC4)CC3)cc2)C(=O)N1", "Dmax": "> 70%"}
{"compound": "O=C1CC[C@H](c2ccc(N3CCC(CN4CCN(c5ccc(-n6cc(-c7cc(Cl)cc(NS(=O)(=O)N8CC(F)C8)c7F)c(-c7ccncc7)n6)cc5)CC4)CC3)nc2)C(=O)N1", "Dmax": "> 70%"}
{"compound": "O=C1CC[C@H](c2ccc(N3CCC(CN4CCN(c5ccc(-n6cc(-c7cc(Cl)cc(NS(=O)(=O)N8CC[C@@H](F)C8)c7F)c(-c7ccncc7)n6)nc5)CC4)CC3)nc2)C(=O)N1", "Dmax": "> 70%"}
{"compound": "O=C1CC[C@@H](c2ccc(N3CCC(CN4CCN(c5ccc(-n6cc(-c7cc(Cl)cc(NS(=O)(=O)N8CCCC8)c7F)c(-c7ccncc7)n6)nc5)CC4)CC3)nc2)C(=O)N1", "Dmax": "> 70%"}
{"compound": "O=C1CCC(c2ccc(N3CCC(CN4CCN(c5ccc(-n6cc(-c7cc(Cl)cc(NS(=O)(=O)N8CC(F)C8)c7F)c(-c7ccncc7)n6)cc5)CC4)CC3)nc2)C(=O)N1 (racemic)", "Dmax": "> 70%"}
{"compound": "O=C1CC[C@H](c2ccc(N3CCC(CN4CCN(c5cc(F)c(-n6cc(-c7cc(Cl)cc(NS(=O)(=O)N8CCCC8)c7F)c(-c7ccncc7)n6)cc5F)CC4)CC3)cc2)C(=O)N1", "Dmax": "> 70%"}
{"compound": "CCCS(=O)(=O)Nc1cccc(-c2nc(C3CCN(C(=O)C4CCN(CC5CCN(c6ccc(C7CCC(=O)NC7=O)cn6)CC5)CC4)CC3)sc2-c2ccnc(N)n2)c1F (racemic)", "Dmax": "30 to 70%"}
{"compound": "CCCS(=O)(=O)Nc1cccc(-c2cn(-c3ccc(N4CCN(CC5CCN(c6ccc([C@H]7CCC(=O)NC7=O)cc6)CC5)[C@H](C)C4)cc3)nc2-c2ccncc2)c1F", "Dmax": "30 to 70%"}
{"compound": "CCC(C)S(=O)(=O)Nc1cc(Cl)cc(-c2cn(-c3ccc(N4CCN(CC5CCN(c6ccc([C@H]7CCC(=O)NC7=O)cc6)CC5)CC4)cc3)nc2-c2ccncc2)c1F (mixture of isomers)", "Dmax": "> 70%"}

Cited source for all entries: patent US20260317324A1
